- test system: human orexin-2 receptor (Homo sapiens (Human), UniProt O43614)
- Sequence (O43614 whole entry): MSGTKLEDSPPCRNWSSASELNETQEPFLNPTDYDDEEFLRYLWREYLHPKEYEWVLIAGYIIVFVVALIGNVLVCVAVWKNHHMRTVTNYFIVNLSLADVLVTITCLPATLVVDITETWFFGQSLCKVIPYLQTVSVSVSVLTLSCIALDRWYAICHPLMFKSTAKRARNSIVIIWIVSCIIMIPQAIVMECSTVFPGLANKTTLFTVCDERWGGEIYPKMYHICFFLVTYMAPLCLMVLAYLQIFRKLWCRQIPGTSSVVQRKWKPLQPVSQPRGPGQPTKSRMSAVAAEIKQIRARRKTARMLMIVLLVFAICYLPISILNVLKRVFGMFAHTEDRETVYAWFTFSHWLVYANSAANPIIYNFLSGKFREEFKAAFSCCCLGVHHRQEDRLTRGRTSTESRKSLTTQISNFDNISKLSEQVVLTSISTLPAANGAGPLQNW
- measurement notes: FLIPR Ca2+ Flux Assay, orexin-2 receptor
- condition details: CHO cells expressing the human orexin-2 receptor; agonist 70 pM Ala-6,12 orexin-A; read-out: hOX2R FLIPR IC50
pIC50: −log10 of the molar value.
If the reported pIC50 equals or exceeds 7, assign Criterion met. If not, assign Criterion not met.

[[record]]
smiles_code = "CCN(CCN(C)c1nc(C)cc(C)n1)C(=O)c1cccnc1CC(F)(F)F"
answer_label = "Criterion not met"

[[record]]
smiles_code = "CCN(CCN(C)c1cc(C#N)ccn1)C(=O)c1ccccc1OCCF"
answer_label = "Criterion met"

[[record]]
smiles_code = "CCN(CCN(C)c1cc(C#N)ccn1)C(=O)c1c(F)cccc1-n1ccnn1"
answer_label = "Criterion not met"

[[record]]
smiles_code = "CCN(CCN(C)c1cc(C#N)ccn1)C(=O)c1cc(F)ccc1-n1nccn1"
answer_label = "Criterion met"

[[record]]
smiles_code = "CCN(CCN(C)c1nccc(C#N)n1)C(=O)c1ccccc1-n1nccn1"
answer_label = "Criterion not met"

[[record]]
smiles_code = "CCN(CCN(C)c1cccc(C(C)(C)O)n1)C(=O)c1ccccc1OCC(F)F"
answer_label = "Criterion not met"

[[record]]
smiles_code = "CCN(CCN(C)c1cc(C#N)ccn1)C(=O)c1cccnc1C(F)(F)F"
answer_label = "Criterion not met"

[[record]]
smiles_code = "CCN(CCN(C)c1cccc(C(C)(C)O)n1)C(=O)c1ncccc1-n1nccn1"
answer_label = "Criterion not met"

[[record]]
smiles_code = "CCCN(CCN(C)c1cc(C#N)ccn1)C(=O)c1ccccc1-n1nccn1"
answer_label = "Criterion met"

[[record]]
smiles_code = "CCN(CCN(C)c1nccc(C(C)(C)O)n1)C(=O)c1ccc(OC)nc1C1CC1"
answer_label = "Criterion met"

[[record]]
smiles_code = "CCN(CCN(C)c1cccc(C(C)(C)O)n1)C(=O)c1ccccc1-n1nccn1"
answer_label = "Criterion met"

[[record]]
smiles_code = "CCCc1ccccc1C(=O)N(CC)CCN(C)c1nc(C)cc(C)n1"
answer_label = "Criterion met"

[[record]]
smiles_code = "CCN(CCN(C)c1nccc(C(C)(C)O)n1)C(=O)c1ccccc1OCC(F)F"
answer_label = "Criterion met"

[[record]]
smiles_code = "CCN(CCN(C)c1nc(C)cc(C)n1)C(=O)c1cccnc1-n1cccn1"
answer_label = "Criterion met"

[[record]]
smiles_code = "CCN(CCN(C)c1nccc(C(C)(C)O)n1)C(=O)c1ncccc1-n1nccn1"
answer_label = "Criterion met"

[[record]]
smiles_code = "CCN(CCN(C)c1cccc(C(C)(C)O)n1)C(=O)c1ccccc1OC(F)F"
answer_label = "Criterion not met"

[[record]]
smiles_code = "CCN(CCN(C)c1cc(C#N)ccn1)C(=O)c1ccccc1C1(C#N)CC1"
answer_label = "Criterion met"

[[record]]
smiles_code = "CCN(CCN(C)c1nccc(C(C)(C)O)n1)C(=O)c1ccccc1OC(F)F"
answer_label = "Criterion met"


* * *

- test system: human orexin-2 receptor (Homo sapiens (Human), UniProt O43614)
- measurement notes: FLIPR Ca2+ Flux Assay, orexin-2 receptor
- Assay type: cell-based
- condition details: CHO cells expressing the human orexin-2 receptor; agonist 70 pM Ala-6,12 orexin-A; read-out: hOX2R FLIPR IC50
A collection of compounds and their measured log10 of IC50
property: log10 of IC50 (log10 of the value in nM)

[[record]]
compound = "CCOc1ccccc1C(=O)N(CC)CCN(C)c1nc(C)cc(C)n1"
experimental_result = 1.20

[[record]]
compound = "CCN(CCN(C)c1cc(C#N)ccn1)C(=O)c1ccccc1OC(F)(F)F"
experimental_result = 1.76

[[record]]
compound = "CCN(CCN(C)c1cc(C#N)ccn1)C(=O)c1ccccc1-c1cnccn1"
experimental_result = 1.36

[[record]]
compound = "CN(CCN(CC1CC1)C(=O)c1ccccc1-n1nccn1)c1cc(C#N)ccn1"
experimental_result = 1.55

[[record]]
compound = "CCN(CCN(C)c1nc(C)cc(C)n1)C(=O)c1nccnc1-n1cccn1"
experimental_result = 1.27

[[record]]
compound = "CCN(CCN(C)c1nc(C)cc(C)n1)C(=O)c1ccccc1CC(F)(F)F"
experimental_result = 1.56

[[record]]
compound = "CCN(CCN(C)c1cc(C#N)ccn1)C(=O)c1ccc(OCC(F)(F)F)nc1"
experimental_result = 4.00

[[record]]
compound = "CCN(CCN(C)c1nccc(C(C)(C)O)n1)C(=O)c1ccccc1C1CC1(F)F (stereo not drawn)"
experimental_result = 1.23

[[record]]
compound = "CCN(CCN(C)c1nccc(C(C)(C)O)n1)C(=O)c1ccccc1-n1ncnn1"
experimental_result = 1.23


* * *

Listed below: IC50 values for each entry.
- test system: human orexin-2 receptor (Homo sapiens (Human))
- measurement notes: FLIPR Ca2+ Flux Assay, orexin-2 receptor
- condition details: CHO cells expressing the human orexin-2 receptor; agonist 70 pM Ala-6,12 orexin-A; read-out: hOX2R FLIPR IC50
property: IC50

[[record]]
compound = "CCN(CCN(C)c1cc(C#N)ccn1)C(=O)c1cccc2oc(=O)[nH]c12"
property = "IC50"
experimental_result = "10000 nM"

[[record]]
compound = "CCN(CCN(C)c1cc(C#N)ccn1)C(=O)c1ccccc1N1CCCC1"
property = "IC50"
experimental_result = "31.8 nM"

[[record]]
compound = "CCN(CCN(C)c1cccc(C(C)(C)O)n1)C(=O)c1ccccc1C1CC1"
property = "IC50"
experimental_result = "53.7 nM"

[[record]]
compound = "CCCc1ccccc1C(=O)N(CC)CCN(C)c1nccc(C(C)(C)O)n1"
property = "IC50"
experimental_result = "13.1 nM"

[[record]]
compound = "CCN(CCN(C)c1cccc(C#N)n1)C(=O)c1ccccc1-n1nccn1 [Example E-22]"
property = "IC50"
experimental_result = "569 nM"

[[record]]
compound = "CCN(CCN(C)c1cc(C#N)ccn1)C(=O)c1ccccc1-n1cc(C)nn1"
property = "IC50"
experimental_result = "341 nM"

[[record]]
compound = "CCN(CCN(C)c1nc(C)cc(C)n1)C(=O)c1ncccc1-n1nccn1"
property = "IC50"
experimental_result = "32.4 nM"

[[record]]
compound = "CCN(CCN(C)c1nc(C)cc(C)n1)C(=O)c1nccnc1-n1nccn1"
property = "IC50"
experimental_result = "1270 nM"

[[record]]
compound = "CCN(CCN(C)c1cccc(C(C)(C)O)n1)C(=O)c1ccccc1-n1cccn1"
property = "IC50"
experimental_result = "93.3 nM"


* * *

IC50 values for the molecules below.
- test system: human orexin-2 receptor (Homo sapiens (Human), UniProt O43614)
- measurement notes: FLIPR Ca2+ Flux Assay, orexin-2 receptor
- condition details: CHO cells expressing the human orexin-2 receptor; agonist 70 pM Ala-6,12 orexin-A; read-out: hOX2R FLIPR IC50
property: IC50 (nM)

[[record]]
smiles_code = "CCN(CCN(C)c1nc(C)cc(C)n1)C(=O)c1nccnc1-c1ccccn1"
units_of_measure = "nM"
experimental_result = 23

[[record]]
smiles_code = "CCN(CCN(C)c1nccc(C(C)(C)O)n1)C(=O)c1cccnc1-n1cccn1"
units_of_measure = "nM"
experimental_result = 37

[[record]]
smiles_code = "CCN(CCN(C)c1cc(C#N)ccn1)C(=O)c1ccccc1-n1ccnc1"
units_of_measure = "nM"
experimental_result = 10000

[[record]]
smiles_code = "CCN(CCN(C)c1nccc(C(C)(C)O)n1)C(=O)c1ccccc1C1CC1"
units_of_measure = "nM"
experimental_result = 9.1


* * *

- test system: human orexin-2 receptor (Homo sapiens (Human), UniProt O43614)
- measurement notes: FLIPR Ca2+ Flux Assay, orexin-2 receptor
- condition details: CHO cells expressing the human orexin-2 receptor; agonist 70 pM Ala-6,12 orexin-A; read-out: hOX2R FLIPR IC50
pIC50: −log10 of the molar value.
property: pIC50

[[record]]
smiles_code = "CCN(CCN(C)c1nc(C)cc(C)n1)C(=O)c1cccnc1OC(C)C"
test_system = "human orexin-2 receptor (Homo sapiens (Human), UniProt O43614)"
property = "pIC50"
experimental_result = 7.10

[[record]]
smiles_code = "CCN(CCN(C)c1cc(C#N)ccn1)C(=O)c1cc(C)ccc1-n1nccn1"
test_system = "human orexin-2 receptor (Homo sapiens (Human), UniProt O43614)"
property = "pIC50"
experimental_result = 7.79

[[record]]
smiles_code = "CCN(CCN(C)c1cccc(C(C)(C)O)n1)C(=O)c1ncccc1-c1ccccc1"
test_system = "human orexin-2 receptor (Homo sapiens (Human), UniProt O43614)"
property = "pIC50"
experimental_result = 6.68

[[record]]
smiles_code = "CCN(CCN(C)c1ncc(Cl)c(C(F)(F)F)n1)C(=O)c1ccccc1-n1nccn1"
test_system = "human orexin-2 receptor (Homo sapiens (Human), UniProt O43614)"
property = "pIC50"
experimental_result = 7.07

[[record]]
smiles_code = "CCN(CCN(C)c1cc(C#N)ccn1)C(=O)c1ccccc1OCC(F)(F)F"
test_system = "human orexin-2 receptor (Homo sapiens (Human), UniProt O43614)"
property = "pIC50"
experimental_result = 7.11

[[record]]
smiles_code = "CCN(CCN(C)c1cccc(C(C)(C)O)n1)C(=O)c1nccnc1-n1cccn1"
test_system = "human orexin-2 receptor (Homo sapiens (Human), UniProt O43614)"
property = "pIC50"
experimental_result = 6.48

[[record]]
smiles_code = "CCOc1ccccc1C(=O)N(CC)CCN(C)c1cccc(C(C)(C)O)n1"
test_system = "human orexin-2 receptor (Homo sapiens (Human), UniProt O43614)"
property = "pIC50"
experimental_result = 6.81

[[record]]
smiles_code = "CCN(CCN(C)c1nccc(C(C)(C)O)n1)C(=O)c1ccccc1-n1nccn1"
test_system = "human orexin-2 receptor (Homo sapiens (Human), UniProt O43614)"
property = "pIC50"
experimental_result = 7.96

